Tested on: panel of 24 kinases
Assay: Kinase selectivity testing (percentage inhibition of 24 kinases at 1 μM)
Assay type: biochemical
Settings: proquinase, FGFR1, 1 uM
The label depends only on % inhibiton at 1 uM FGFR1: Criterion met if it is at least 20%, Criterion not met if it is smaller.

(Q) Given the entry COc1cc(NCC2CCNCC2)nc2c1nnn2-c1cccc(OC(F)(F)F)c1 [2-92] , answer whether its % inhibiton at 1 uM FGFR1 meets or surpasses 20%.
(A) Criterion not met

(Q) Follow-up entry: COc1cc(NCC2CCNCC2)nc2c1nnn2-c1cccc(N(C)C)c1 [2-87]
(A) Criterion not met

New cases:
(Q) Given the entry FC(F)(F)c1cccc(-n2nnc3cc(Cl)c(NCC4CCNCC4)nc32)c1 [2-83] , answer whether its % inhibiton at 1 uM FGFR1 meets or surpasses 20%.
(A) Criterion met

(Q) Follow-up entry: FC(F)(F)Oc1cccc(-n2nnc3cc(Cl)c(NCC4CCNCC4)nc32)c1 [2-54]
(A) Criterion met

Values from patent US20130065883A1
